tested on: HL-60; assay: Growth inhibition of human HL60 cells at 2.5 uM after 48 hrs by MTT assay relative to control; format: functional; settings: HL-60, 48 h, read-out: GI
ASSAY_METRIC: inhibition of growth at 2.5 µM (%)
Write the number in % without appending the unit.

# count of solved cases: 2
*Q* Look up inhibition of growth at 2.5 µM with HL-60 for this compound: C[C@H]1[C@H](C)CC[C@]2(C(=O)N3CCNCC3)CC[C@]3(C)C(=CC[C@@H]4[C@@]5(C)CCC(=O)C(C)(C)[C@@H]5CC[C@]43C)[C@H]12
*A* 43.7

*Q* Look up inhibition of growth at 2.5 µM with HL-60 for this compound: CC(=O)NN/C=C1/C[C@]2(C)[C@H]3CC=C4[C@@H]5[C@@H](C)[C@H](C)CC[C@]5(C(=O)O)CC[C@@]4(C)[C@]3(C)CC[C@H]2C(C)(C)C1=O
*A* 28.8

Here is another compound to look at.
*Q* Look up inhibition of growth at 2.5 µM with HL-60 for this compound: C[C@H]1[C@H](C)CC[C@]2(C(=O)O)CC[C@]3(C)C(=CC[C@@H]4[C@@]5(C)C/C(=C/O)C(=O)C(C)(C)[C@@H]5CC[C@]43C)[C@H]12
*A* 33.9
